system.name: LasB (Pseudomonas aeruginosa)
Construct: The elastase LasB of P. aeruginosa is a secreted metalloprotease; endogenous in cells; host or cells: P. aeruginosa PA14 culture supernatant
Sequence (Q02RJ6 198-498): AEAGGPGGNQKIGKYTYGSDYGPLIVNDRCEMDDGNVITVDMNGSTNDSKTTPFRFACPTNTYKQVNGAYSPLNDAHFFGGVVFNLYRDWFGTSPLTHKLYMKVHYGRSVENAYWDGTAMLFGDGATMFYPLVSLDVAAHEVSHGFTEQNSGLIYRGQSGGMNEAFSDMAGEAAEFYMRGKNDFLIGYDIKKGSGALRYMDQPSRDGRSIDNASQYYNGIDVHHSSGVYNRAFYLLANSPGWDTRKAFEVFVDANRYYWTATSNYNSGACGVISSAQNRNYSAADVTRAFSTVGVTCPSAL
run.description: FRET-based LasB in vitro inhibition assay
Assay type: biochemical, P. aeruginosa PA14
reported.conditions: read-out: LasB Inhibition at 20 μM
experimental.readout: inhibition at 20 µM

Sample records with inhibition at 20 µM:
| compound | system.name | assay.value |
| --- | --- | --- |
| O=C(NC[C@H](OCc1ccc(C#Cc2ccc(CN3CCOCC3)cc2)cc1)C(=O)NO)c1ccc2[nH]ccc2c1 [(S)-13j] | LasB (Pseudomonas aeruginosa) | < 10% |
| O=C(NO)[C@H](CN(Cc1ccccc1)Cc1ccccc1)OCc1ccc(C#Cc2ccc(CN3CCOCC3)cc2)cc1 [(S)-37] | LasB (Pseudomonas aeruginosa) | < 10% |
| O=C(NC[C@H](OCc1ccc(C#Cc2ccc(CN3CCOCC3)cc2)cc1)C(=O)NO)c1cnc2ccccc2c1 [(S)-13f] | LasB (Pseudomonas aeruginosa) | < 10% |

Consider the additional compound presented here.
**Q:** Please look at this compound and report its inhibition at 20 µM: O=C(NC[C@H](OCc1ccc(C#Cc2ccc(CN3CCOCC3)cc2)cc1)C(=O)NO)c1ccc(Oc2ccccc2)cc1 [(S)-13d]
**A:** < 10%
